- assay_details: Compound was tested for its ability to displace [3H]-5-HT binding to 5-hydroxytryptamine 1D receptor recognition sites in pig caudate membranes
property_name: pIC50
Value format note: pIC50 is -log10 of concentration (mol/L); just state the number.

Input: Tell me pIC50 reported for `CN(C)CCc1c[nH]c2ccc(-n3cncn3)cc12`
Output: 7.70

###

- target_under_test: UniProt:P79400
- Sequence (P79400 whole entry): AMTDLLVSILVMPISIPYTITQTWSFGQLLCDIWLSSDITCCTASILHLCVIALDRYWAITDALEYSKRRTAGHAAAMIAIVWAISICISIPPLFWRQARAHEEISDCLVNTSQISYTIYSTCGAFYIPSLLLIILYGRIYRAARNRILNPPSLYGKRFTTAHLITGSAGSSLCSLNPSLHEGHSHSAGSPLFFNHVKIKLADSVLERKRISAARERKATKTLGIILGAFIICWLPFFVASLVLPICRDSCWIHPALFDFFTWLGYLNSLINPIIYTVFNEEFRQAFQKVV
- assay_details: ChEBML_1955
property_name: pIC50
Scale: pIC50 equals -log10([C]), with [C] in mol/L.

Input: Identify measured pIC50 corresponding to `CN1CCC(c2c[nH]c3ccc(-n4cnnc4)cc23)CC1`
Output: 8.92

Next, consider the following compound.
Input: Look up pIC50 of `CN(C)CCc1c[nH]c2ccc(-n3cnnc3)cc12` and report it.
Output: 9.37

###

- target_under_test: UniProt:P79400
- assay_details: Compound was tested for its ability to displace [125I]GTI binding to 5-hydroxytryptamine 1D receptor recognition sites in pig caudate membranes
property_name: IC50
Write the quantity with the unit trailing the number.

Input: Return reported IC50 for target or system UniProt:P79400, item `CN(C)CCc1c[nH]c2ccc(Cn3cncn3)cc12` .
Output: 16 nM

###

- target_under_test: UniProtKB P79400
- assay_details: Compound was tested for its ability to displace [3H]-5-HT binding to 5-hydroxytryptamine 1D receptor recognition sites in pig caudate membranes
Reported pIC50 values are given for each entry in this list.
Remember, pIC50 is on a log scale: it is -log10 of the molar concentration.

Illustrative cases are given below, each with its answer.
Input: Given the compound `CN(C)CCc1c[nH]c2ccc(-n3cnnc3)cc12` , write its reported pIC50.
Output: 8.70

Input: Give the reported pIC50 for this compound. `CN1CCC(c2c[nH]c3ccc(-n4cnnc4)cc23)CC1`
Output: 8.10

Shifting focus to the compound that follows.
Input: Indicate the recorded pIC50 value for this compound: `CN(C)CCc1c[nH]c2ccc(Cn3cncn3)cc12`
Output: 7.31
